- System: MS2 coat protein
- methodSummary: apparent Kd, MS2 coat protein; higher = weaker binding; RNA-MaP array
- experimentalParameters: ligand present: theophylline; designed as: OFF switch for theophylline
Assign condition met to entries whose apparent Kd meets or exceeds 100 nM; assign condition not met to the rest.

Tell me whether apparent Kd is at least 100 nM here: UGUCAAUCGCCGGAUACCAGCCUAACUGAAGGAAAUCUAAACAUGAGGAUCACCCAUGUAGGCCCUUGGCAGCCGAGUAAGUACA
condition met

Quick check: does AAAUAAUCUAGUCCACAAUGUGACUCAGAUACCAGUGCAAAGCUACACCCUUGGCAGCUGGUUACAUGAGGAUCACCCAUGUCGU have apparent Kd greater than or equal to 100 nM?
condition met

Is the recorded value of apparent Kd equal to or greater than 100 nM for this sequence? UUGGAUGAAGGAGUGAAAAGCAACUCAGAUACCAGUCUGAGUAAUGACCCUUGGCAGCUGAGAACAUGAGGAUCACCCAUGUGAC
condition not met

Could you please find out whether AAGUCAGGAGGCGAUACCAGUUACGACAUGGCCAGUUACAUGAGGAUCACCCAUGUGCGGAACCCUUGGCAGCGCUUACAUCGCU has apparent Kd that meets 100 nM or exceeds it?
condition met

Decide: apparent Kd of CUGCCACAGAUAGAUACCAGAGGCGUGCAAGCUACAGCUCACAUGAGGAUCACCCAUGUUCUCCCUUGGCAGCUACGGUGUAAGG >= 100 nM?
condition not met

Given the entry AAAACGCAACUCGAUACCAGUACACUGAGUCUUCGCCACGACAUGAGGAUCACCCAUGUGUACCCUUGGCAGCGACAGAGCCACA , answer whether its apparent Kd meets or surpasses 100 nM.
condition met

Is apparent Kd for CCUAUUCCUACGGAUACCAGACGAUCCGUGGCGUGUGUGAACAUGAGGAUCACCCAUGUAGUCCCUUGGCAGCCGAUGCGGGUAA at or above 100 nM?
condition met
